System: P. falciparum stage V gametocytes
Parameters: BacTiter-Glo ATP luminescence viability of purified stage V gametocytes in 384-well plates, per cent inhibition versus DMSO
Conditions: 48 h, 5 µM; inhibitor
About 3,200 (25%) of roughly 13,000 compounds showed an effect of 50% or more. The list shows a part of the results.
Readout name: % Inhibition

# Compound, % Inhibition
rows = [
    ("O=C(/C=C/c1ccc(Cl)c(Cl)c1)NCCCCCN1CCCC(CNS(=O)(=O)c2ccc(F)cc2)C1 (stereo not drawn)", "59.41%"),
    ("CCOc1ccc2nc(C)cc(NN=Cc3ccc(Cl)cc3)c2c1", "100.1%"),
    ("CC(=O)N1N=C(c2[nH]c3ccc(Br)cc3c2C)OC1c1ccccc1 (stereo not drawn)", "9.307%"),
    ("CCOc1ccc2nc(C)cc(NN=Cc3ccncc3)c2c1", "-27.59%"),
    ("COc1ccc(CNc2cc(C)nc3sc4c(c23)CCC2(C4)OCCO2)cc1", "-1.212%"),
]

The measured % Inhibition associated with O=C(Nc1ccccc1O)c1ccc(S(=O)(=O)c2ccc(Cl)cc2)cc1 reads 47.63%

Summary for this compound, CC(=O)c1cccc(NC(=O)c2ccc(Cl)c(S(=O)(=O)N3CCc4ccccc43)c2)c1 : % Inhibition is 4.693%

The compound Cc1ccc2c(NN=Cc3cccc(F)c3)cc(C)nc2c1 showed % Inhibition equal to 59.3%

Sure, the documented % Inhibition for COc1ccc2c(NN=Cc3ccc(F)cc3)cc(C)nc2c1 is 107.2%

Given item COc1ccc(S(=O)(=O)NCC2CCCN(CCCCCNC(=O)/C=C/c3ccc(Cl)c(Cl)c3)C2)cc1 (stereo not drawn) , the value recorded as its % Inhibition is 95.6%

---

Listed molecules paired with reported % Inhibition
Test system: P. falciparum stage V gametocytes
Parameters: BacTiter-Glo ATP luminescence viability of purified stage V gametocytes in 384-well plates, per cent inhibition versus DMSO
Conditions: 48 h, 5 µM; inhibitor
Screen size: about 13,000 compounds; about 3,200 (25%) showed an effect of 50% or more. The list shows a part of the results.
Remember to put the unit after the number in your answer.

These recorded examples may help you get a feel for the data.
# Molecule, % Inhibition
records = [
    ("Cc1cccc(Cl)c1S(=O)(=O)Nc1cccc(CCN2CCC(N3CCCCC3)CC2)c1 [TCMDC-134063]", "18.66%"),
    ("O=S(=O)(Nc1cccc(CCN2CCC(N3CCCCC3)CC2)c1)c1cccc2cccnc12 [TCMDC-134074]", "50.45%"),
    ("O=S(=O)(Nc1cccc(CCN2CCC(N3CCCCC3)CC2)c1)c1cccc2ccccc12 [TCMDC-134069]", "73%"),
    ("CCCNCc1ccc(-c2ccc(CN(CCOC)C(=O)COc3ccccc3Cl)cc2)nc1 [TCMDC-141541]", "51.3%"),
    ("CC[C@H](C)[C@H](NC(=O)[C@H](CC1CCCCC1)[C@H](CC)N(O)C=O)C(=O)Nc1ccccn1 [TCMDC-137215]", "2.069%"),
    ("COC(=O)C(Cc1ccccc1)NC(=O)NC1CCN(c2ccnc(Nc3ccc(F)cc3)n2)C1 (centres unmarked) [TCMDC-133597]", "34.56%"),
    ("CCCNCc1ccc(-c2ccc(CN(Cc3ccc4c(c3)OCO4)C(=O)Cc3cccnc3)cc2)nc1 [TCMDC-141529]", "106.5%"),
]

From here, focus on the item given below.
Given the molecule COc1ccc(Cl)cc1S(=O)(=O)Nc1cccc(CCN2CCC(N3CCCCC3)CC2)c1 [TCMDC-134076] and test system P. falciparum stage V gametocytes, the measured % Inhibition is 49.77%

---

Measured % Inhibition by item
System: P. falciparum stage V gametocytes
Design: BacTiter-Glo ATP luminescence viability of purified stage V gametocytes in 384-well plates, per cent inhibition versus DMSO
Conditions: 48 h, 5 µM; inhibitor
Hit rate of the full screen: of about 13,000 compounds, about 3,200 (25%) showed an effect of 50% or more. Some of the results follow.
Kindly answer with a numeric value in %, unit omitted.

Recorded results for 5 compounds are shown here.
# Compound, Reported result
records = [
    ("COc1ccc(NC(=O)Nc2ccc(-c3cccc(-c4nc5ccccc5[nH]4)c3)cc2)cc1 [TCMDC-133250]", -9.476),
    ("CN1CC[C@@H](Oc2cc(C(=O)NCc3ccc(Cl)c(Cl)c3)ccc2C(F)(F)F)C1 [TCMDC-136228]", 28.38),
    ("Cc1nnnn1-c1ccc(C(=O)N2CCC3(CC2)CN(Cc2ccc(Cl)c(Cl)c2)C(=O)O3)cc1 [TCMDC-141691]", -63.06),
    ("COC(=O)CCCCCOc1cc(Cc2cnc(N)nc2N)cc(OC)c1OC [TCMDC-137678]", -5.017),
    ("CCCc1cc(=O)[nH]c(-n2nc(C)cc2NC(=O)C(CC)c2ccccc2)n1 (centres unmarked) [TCMDC-124941]", 11.79),
]

The measured % Inhibition associated with O=C(Nc1ccc(Cl)c(C(F)(F)F)c1)c1ccc(Cl)c([N+](=O)[O-])c1 [TCMDC-125647] reads -24.24

Form field % Inhibition, entry O=C(NCC(NCCCNc1cc(=O)c2ccccc2[nH]1)c1cc(Br)cc(Br)c1)C1=CCCC1 (centres unmarked) [TCMDC-140317] : -52.55

Entry under test: COc1c(I)cc(Cc2cnc(N)nc2N)cc1I [TCMDC-138050] . Its % Inhibition was -8.492

Looking up Cc1cc(-c2ccc(CNCc3ccc(F)cc3)cc2)ccc1S(=O)(=O)NCCN1CCCC1 [TCMDC-132291] , I see its % Inhibition listed as 38.43

Recorded result, CCN(CC)CCN(Cc1ccc(-c2ccc(C(F)(F)F)cc2)cc1)C(=O)Cn1cc(Cc2cnn(C)c2)c(=O)n2nc(-c3ccccc3)cc12 [TCMDC-140690] , % Inhibition: 119.2

---

Each entry below lists one item and its recorded % Inhibition value.
Test system: P. falciparum stage V gametocytes
Set-up: BacTiter-Glo ATP luminescence viability of purified stage V gametocytes in 384-well plates, per cent inhibition versus DMSO
Settings: 48 h, 5 µM; inhibitor
About 3,200 (25%) of roughly 13,000 compounds showed an effect of 50% or more. The list shows a part of the results.
Write the value in % as a bare number.

Worked cases, answers included:
# Compound, Study target, % Inhibition / %
rows = [
    ("Cc1cc(N2CCCC2)nc(Nc2ccc(NC(=O)C(C)(C)C)cc2)n1", "P. falciparum stage V gametocytes", 77.07),
    ("O=C(Nc1ccc(N2CCN(C(=O)/C=C/c3ccccc3)CC2)c(Cl)c1)c1ccc([N+](=O)[O-])o1", "P. falciparum stage V gametocytes", 0.8671),
    ("CCN(CC1CCN(CC2(O)CCOCC2)CC1)c1cc(C)nc(Nc2ccc(Cl)cc2)n1", "P. falciparum stage V gametocytes", 30.17),
    ("COc1ccc(C(=O)CC(=O)c2ccc(OC)cc2OC)c(OC)c1", "P. falciparum stage V gametocytes", 12.1),
    ("OC(CNCc1ccccc1OCc1ccccc1)c1cccc(Br)c1 (stereo not shown)", "P. falciparum stage V gametocytes", 51.74),
]

The reported P. falciparum stage V gametocytes % Inhibition of CCCCCCN1CCC(CNCc2cccc([N+](=O)[O-])c2)CC1 is 17.53

Assay P. falciparum stage V gametocytes, sample COc1ccc(-c2ccc(NC(=O)c3cccc(Cl)c3)cc2)cc1CNC(C)C , % Inhibition read: 39.19

Assay P. falciparum stage V gametocytes, sample COc1ccc(-c2ccc(NC(=O)c3cccc(Cl)c3)cc2)cc1CN(C)CCO , % Inhibition read: 86.37

Entry COc1ccc(-c2ccc(NC(=O)c3ccc(Cl)cc3)cc2)cc1CN(C)CCO under P. falciparum stage V gametocytes had % Inhibition of 86.93

Form field, % Inhibition with P. falciparum stage V gametocytes, item CC(C)(C)c1ccc(CN2CCC(NC(=O)c3ccc(-c4ccccc4Cl)s3)CC2)cc1 : 7.857

Record Cn1nc(-c2ccc(Cl)cc2)c2cc(C(=O)NCCN3CCOCC3)sc21 has P. falciparum stage V gametocytes % Inhibition equal to 0.2691

Entry COc1ccc(CCNC(=O)c2cc(C)ccc2O)cc1-c1ccc(C(C)(C)C)cc1 , P. falciparum stage V gametocytes data, % Inhibition value: 6.315

Form field, % Inhibition with P. falciparum stage V gametocytes, item CC(C)(C)c1ccc(CNC(=O)/C=C/c2ccc(CNC3CCNCC3)cc2)cc1 : 88.02

For the compound O=C(Nc1ccc(C(F)(F)F)cc1)c1cccc(S(=O)(=O)NCC2CCCN(CC3CCCCC3)C2)c1 (stereo not shown) , the measured % Inhibition on P. falciparum stage V gametocytes was -19.66

// compound Cc1nc(-c2cccc(C(=O)NC3CCC(CCN4CCc5ccc(-c6cccnc6)cc5CC4)CC3)c2)no1 (stereo not shown) , assay P. falciparum stage V gametocytes, % Inhibition value: -46.69

Readout % Inhibition for OC(CNCc1ccccc1OCc1ccccc1)c1cccc(Cl)c1 (stereo not shown) , test system P. falciparum stage V gametocytes, was -9.137

Reading of % Inhibition for CCc1cccc2sc(N3CCN(C(=O)c4ccc([N+](=O)[O-])o4)CC3)nc12 with P. falciparum stage V gametocytes: 88.03

Value sought: % Inhibition, system P. falciparum stage V gametocytes, item COc1ccc(-c2ccc(NC(=O)c3ccc(Cl)cc3)cc2)cc1CN(C)CCN(C)C . Result: 46.96

// assay P. falciparum stage V gametocytes, entry COc1ccc(-c2ccc(NC(=O)c3cccc(Cl)c3)cc2)cc1CN(C)CCN(C)C , % Inhibition value = 14.93

% Inhibition value, target or system P. falciparum stage V gametocytes, for CC(C)(C)c1ccc(CNC(=O)c2ccc(CNC3CCC(N)CC3)s2)cc1 (stereo not shown) : 101.7

Entry CC(C)(C)c1cc(C(=O)Nc2cccnc2)cc(C(=O)Nc2cccnc2)c1 under P. falciparum stage V gametocytes had % Inhibition of -16.11

Log: P. falciparum stage V gametocytes, compound COc1ccccc1C(=O)N1CCN(Cc2cccs2)CC1 , % Inhibition = 0.2209

Item: CC(C)(C)c1ccc(CNC(=O)c2cc(CNC3CCNC3)ccc2O)cc1 (stereo not shown) | System: P. falciparum stage V gametocytes | % Inhibition: 47.42

Per the reported P. falciparum stage V gametocytes data, Cc1c(Cl)ccc2sc(N3CCN(C(=O)c4ccc([N+](=O)[O-])o4)CC3)nc12 has % Inhibition of 88.71
